Tested target: … (SEQ ID NO: 1)-HLA-A*02 complex presented on antigen positive cancer cells (human)
Test method notes: cell-based or functional assay
Listed here: items and their measured EC50 (mel624), IFN-γ ELISPOT, activation of redirected T cells.
Write the number in pM without appending the unit.

ImmTAC molecule comprising a79 (SEQ ID NO: 7) and b69 (SEQ ID NO: 14) (TCR, part only; not given: anti-CD3 scFv, linker, TCR constants, part only) TCR alpha, part: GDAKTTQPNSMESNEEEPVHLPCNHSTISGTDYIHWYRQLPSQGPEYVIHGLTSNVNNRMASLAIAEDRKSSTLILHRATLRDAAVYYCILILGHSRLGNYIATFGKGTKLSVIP TCR beta, part: DGGITQSPKYLFRKEGQNVTLSCEQNLNHDAMYWYRQDPGQGLRLIYYSQIMGDEQKGDIAEGYSVSREKKESFPLTVTSAQKNPTAFYLCASSWWTGGSAEIRFGPGTRLTVT    39.8

The binder listed as ImmTAC molecule comprising a79 (SEQ ID NO: 7) and b75 (SEQ ID NO: 20) (TCR, part only; not given: anti-CD3 scFv, linker, TCR constants, part only) TCR alpha, part: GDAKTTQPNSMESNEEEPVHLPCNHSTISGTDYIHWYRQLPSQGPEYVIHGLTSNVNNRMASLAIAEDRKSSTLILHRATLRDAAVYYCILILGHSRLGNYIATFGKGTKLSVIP TCR beta, part: DGGITQSPKYLFRKEGQNVTLSCEQNLNHDAMYWYRQDPGQGLRLIYYSQIMGDEQKGDIAEGYSVSREKKESFPLTVTSAQKNPTAFYLCASSWWTGGSAPISFGPGTRLTVT has a reported EC50 (mel624), IFN-γ ELISPOT, activation of redirected T cells of 23.6

Kindly note the recorded EC50 (mel624), IFN-γ ELISPOT, activation of redirected T cells for ImmTAC molecule comprising a79 (SEQ ID NO: 7) and b67 (SEQ ID NO: 13) (TCR, part only; not given: anti-CD3 scFv, linker, TCR constants, part only) TCR alpha, part: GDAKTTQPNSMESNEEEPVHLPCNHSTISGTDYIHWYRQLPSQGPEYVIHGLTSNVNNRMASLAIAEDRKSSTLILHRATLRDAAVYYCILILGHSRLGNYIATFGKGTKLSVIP TCR beta, part: DGGITQSPKYLFRKEGQNVTLSCEQNLNHDAMYWYRQDPGQGLRLIYYSQIMGDEQKGDIAEGYSVSREKKESFPLTVTSAQKNPTAFYLCASSWWTSGSAPIRFGPGTRLTVT , which is 26.3
